- studySystem: histone deacetylase, subtype 1 (HDAC1) (Homo sapiens)
- Construct: Flag; made in house
- Sequence (Q13547 whole entry): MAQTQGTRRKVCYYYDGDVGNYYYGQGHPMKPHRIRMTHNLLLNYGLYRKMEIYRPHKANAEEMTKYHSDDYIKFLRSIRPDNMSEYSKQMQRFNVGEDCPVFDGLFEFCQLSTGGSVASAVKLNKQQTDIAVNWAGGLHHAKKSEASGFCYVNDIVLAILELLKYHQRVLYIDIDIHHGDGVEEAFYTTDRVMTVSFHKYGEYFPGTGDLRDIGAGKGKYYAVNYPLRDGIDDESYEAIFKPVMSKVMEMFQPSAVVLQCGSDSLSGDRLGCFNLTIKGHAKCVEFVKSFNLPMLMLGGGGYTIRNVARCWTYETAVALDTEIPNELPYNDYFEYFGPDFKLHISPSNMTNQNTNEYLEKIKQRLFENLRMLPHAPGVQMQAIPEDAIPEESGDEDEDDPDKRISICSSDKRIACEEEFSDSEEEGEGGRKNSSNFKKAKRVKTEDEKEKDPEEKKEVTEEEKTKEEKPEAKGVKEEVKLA
- protocolNotes: HDAC1-Flag assay (in vitro fluorescent deacetylation assay)
- Format: biochemical
- recordedConditions: Table 2, compounds of formula III; epitope-tagged human HDAC1 complex, substrate at Km; mean ± spread (N); read-out: HDAC Inhibition (IC50) nm
metricName: pIC50
One number for each entry, as −log10 of the molar value.

O=C(CCCCCN(CC(=O)NCc1ccccc1)CC(=O)NCc1ccccc1)NO [Compound 48] ... 6.73
CC(C)CNC(=O)CN(CCCCCC(=O)NO)CC(=O)NCC(C)C [Compound 51] ... 6.54
O=C(CCCCCN(CC(=O)NCC1CCCCC1)CC(=O)NCC1CCCCC1)NO [Compound 52] ... 6.51
O=C(CCCCCN(CC(=O)NCCc1ccccc1)CC(=O)NCCc1ccccc1)NO [Compound 42] ... 7.26
O=C(CCCCCN(CC(=O)N1CCC(Cc2ccccc2)CC1)CC(=O)N1CCC(Cc2ccccc2)CC1)NO [Compound 53] ... 6.06

Hey, can you go through the list below and give me pIC50 for every item?
1. O=C(CCCCCN(CC(=O)NC1CCCCC1)CC(=O)NC1CCCCC1)NO [Compound 50]
2. O=C(CCCCCCCN(CC(=O)NCCc1ccccc1)CC(=O)NCCc1ccccc1)NO [Compound 49]

Output:
1. 6.57
2. 6.72

Task: Returns the measured pIC50 for the input molecule. Input: O=C(CCCCCN(CC(=O)N1CCN(c2ccccc2)CC1)CC(=O)N1CCN(c2ccccc2)CC1)NO [Compound 45]
Output: 6.85

The measured values listed here are drawn from patent US20090023718A1.
